The measurements presented in this section are drawn from patent US20170037149A1.

Target: T1, human FLT3 (human, UniProt P36888 27-993)
T1 construct: On transfected CHO cells, or on the FLT3 positive human AML cell lines EOL-1 / MV4-11 where the row says so; also called hu FLT3; full length human FLT3
Test: FACS, scFv on CHO-human FLT3 pre-incubated with FLT3 ligand (competitor)
observable: median [+ligand]/median [w/o ligand]*100

Consider the reported median [+ligand]/median [w/o ligand]*100 for these binders:
# binder, median [+ligand]/median [w/o ligand]*100
rows = [
    ("FL-7 scFv (scFv, periplasmic prep) scFv: QVTLKESGPTLVKPTETLTLTCTVSGFSLNNARMGVSWIRQPPGKALEWLAHIFSNDEKSYSTSLKNRLTISKDSSKTQVVLTMTNVDPVDTATYYCARIVGYGTGWFGYFDYWGQGTQVTVSSGGGGSGGGGSGGGGSDIQMTQSPSSLSASVGDRVTITCRASQDIRTDLAWYQQKPGKAPKRLIYAASSLQSGVPSRFSGSGSGTEFTLTISSLQPEDFATYYCLQHNRYPLTFGGGTKVDIK", "≥ 75%"),
    ("FL-6 scFv (scFv, periplasmic prep) scFv: QVTLKESGPTLVKPTETLTLTCTLSGFSLNNARMAVSWIRQPPGKTLEWLAHIFSNDEKSYSPSLKSRLTISKDTSKSQVVLTMTNMDPEDTATYYCARIVGYGTGWYGFFDYWGQGILVTVSSGGGGSGGGGSGGGGSDIQMTQSPSSLSASVGDRVTITCRASQGIRNDLGWFQQKPGKAPKRLIYAASVLQSGVPSRFSGSGSGTEFTLTISSLQPEDFATYYCLQHNSYPLTFGGGTKVDIK", "≥ 75%"),
]

# next binder below
Exercise: Param item = FL-12 scFv (scFv, periplasmic prep) scFv: QVTLKESGPALVKPTETLTLTCTVSGFSLSNARMGVSWIRQPPGKALEWLANIFSNDEKSYSTSLKSRLTISKGTSKSQVVLTMTNMDPEDTATYYCARIVGYGSGWYGYFDYWGQGTLVTVSSGGGGSGGGGSGGGGSDIQMTQSPSSLSASVGDRVTITCRASQGIRNDLGWYQQKPGKAPQRLIYAASSLQSGVPSRFSGSGSGTEFTLTISSLQPEDFATYYCLQHNSYPLTFGGGTKVEIK ; retrieve measured median [+ligand]/median [w/o ligand]*100.
Key: ≥ 75%
